# target under test: Fuc(a1-2)[GalNAc(a1-3)]Gal(b1-4)GlcNAc(b1-2)Man(a1-3)[Fuc(a1-2)[GalNAc(a1-3)]Gal(b1-4)GlcNAc(b1-2)Man(a1-6)]Man(b1-4)GlcNAc(b1-4)GlcNAc
# test summary: glycan array binding signal (z-score within array); higher = stronger binding
# assay context: glycan notation: IUPAC condensed, linker removed
Shown is part of a subset that was picked to be rich in the strongest signals.
Rule: glycan array binding signal (z-score) under -0.07 gives not fulfilled, otherwise fulfilled.

Task: Dear colleague, could you confirm whether CIH1 (Colletotrichum higginsianum) (protein) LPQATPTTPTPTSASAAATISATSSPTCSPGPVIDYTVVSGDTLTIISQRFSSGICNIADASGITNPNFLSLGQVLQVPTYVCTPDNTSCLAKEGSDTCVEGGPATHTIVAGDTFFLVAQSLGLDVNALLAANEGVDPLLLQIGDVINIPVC has glycan array binding signal (z-score) at or above -0.07?
Output: not fulfilled

Task: Dear colleague, could you confirm whether CBM40 CPF071 (Clostridium perfringens) (protein) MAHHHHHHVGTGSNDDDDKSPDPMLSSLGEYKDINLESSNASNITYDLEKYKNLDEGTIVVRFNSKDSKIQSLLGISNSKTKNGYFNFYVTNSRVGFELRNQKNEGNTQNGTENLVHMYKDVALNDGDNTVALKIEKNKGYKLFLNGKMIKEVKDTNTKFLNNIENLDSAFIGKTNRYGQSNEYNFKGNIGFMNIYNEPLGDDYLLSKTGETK has glycan array binding signal (z-score) at or above -0.07?
Output: not fulfilled

Task: Dear colleague, could you confirm whether Tp0751, 83732 (protein) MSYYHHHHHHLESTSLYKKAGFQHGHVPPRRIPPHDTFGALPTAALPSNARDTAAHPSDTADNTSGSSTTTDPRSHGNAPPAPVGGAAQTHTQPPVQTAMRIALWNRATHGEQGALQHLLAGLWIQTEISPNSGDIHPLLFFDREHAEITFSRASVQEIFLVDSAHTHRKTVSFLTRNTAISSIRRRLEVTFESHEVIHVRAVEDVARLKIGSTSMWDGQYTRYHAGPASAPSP has glycan array binding signal (z-score) at or above -0.07?
Output: fulfilled

Task: Dear colleague, could you confirm whether Mnn9-2N3 (Aspergillus fumigatus) (protein) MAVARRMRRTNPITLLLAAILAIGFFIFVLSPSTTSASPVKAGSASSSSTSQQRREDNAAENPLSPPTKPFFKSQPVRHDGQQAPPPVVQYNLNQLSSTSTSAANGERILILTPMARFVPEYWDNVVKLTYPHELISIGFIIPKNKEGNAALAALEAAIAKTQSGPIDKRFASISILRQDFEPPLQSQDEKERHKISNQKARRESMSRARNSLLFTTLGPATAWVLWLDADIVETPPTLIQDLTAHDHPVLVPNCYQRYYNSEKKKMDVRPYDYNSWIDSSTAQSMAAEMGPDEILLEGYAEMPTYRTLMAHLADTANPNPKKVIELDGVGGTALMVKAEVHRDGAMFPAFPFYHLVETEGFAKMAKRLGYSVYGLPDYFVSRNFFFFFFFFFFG has glycan array binding signal (z-score) at or above -0.07?
Output: fulfilled

Task: Dear colleague, could you confirm whether RbmA (Vibrio cholerae), A0A2H4NFB8 (protein) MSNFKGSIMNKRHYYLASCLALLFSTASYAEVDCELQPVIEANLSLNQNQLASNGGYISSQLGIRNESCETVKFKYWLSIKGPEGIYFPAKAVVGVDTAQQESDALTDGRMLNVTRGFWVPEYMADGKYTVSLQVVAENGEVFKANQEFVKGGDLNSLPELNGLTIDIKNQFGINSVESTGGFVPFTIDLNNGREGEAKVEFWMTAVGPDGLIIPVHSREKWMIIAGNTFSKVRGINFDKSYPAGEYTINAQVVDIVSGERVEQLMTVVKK has glycan array binding signal (z-score) at or above -0.07?
Output: not fulfilled
